All values here come from PubChem BioAssay (NCI).

System: LOX IMVI melanoma
Assay: NCI-60 one-dose screen, 48 h (100 = growth as untreated, 0 = no growth, -100 = all killed)
Settings: 10 µM
This is part of a sample that, as a whole, favours compounds with a hit. Of some 83,000 tested, about 20% had one in any assay.
Lab note: compare growth with 80%, writing MET if less and NOT MET if equal or more.

- O=C(CCCCCCC(=O)Nc1ccccc1)NO: MET
- Oc1cccc(-c2nc3sccn3c2-c2ccncn2)c1: MET
- O=C(CCCCC(=O)Oc1c(Cl)cc(Cl)cc1[N+](=O)[O-])Oc1c(Cl)cc(Cl)cc1[N+](=O)[O-]: NOT MET
- COc1ccc(C(c2ccc(OCCN(C)C)cc2)c2cc3ccccc3c3ccccc23)cc1 (stereo not given): MET
- COc1ccc(C(=O)CC(CC(=O)c2ccc(OC)cc2)c2c(C)nn(-c3ccccc3)c2Cl)cc1: NOT MET
- CC1OC2CC(=O)OC2C2=C1C(=O)c1c(O)c3c(c(O)c1C2=O)C1CC(O)C3(O)C(C)O1 (stereo not given): MET
- Nc1nc(-c2ccc(Cl)cc2)cc(-c2cc3ccccc3oc2=O)n1: NOT MET
- COc1ccc(-c2cc(-c3cc(OC)ccc3OC)nc(N)c2C#N)cc1: MET
- COc1cc(C(=O)/C=C/c2c[nH]c3ccccc23)cc(OC)c1OC: MET
- Cc1ccc(/C=C/C(=O)C(=O)/C=C/c2ccc(C)cc2)cc1: NOT MET

###

Test system: CAKI-1 renal
Assay: NCI-60 one-dose screen, 48 h (100 = growth as untreated, 0 = no growth, -100 = all killed)
Settings: 10 µM
About 83,000 compounds went through this panel and 20% of them were active in at least one assay; those are over-represented in the sample as a whole.
Lab note: compare growth with 20%, writing 1.0 if less and 0.0 if equal or more.

- c1ccc(CCCCc2ccc3ccccc3n2)cc1: 0.0
- CCOc1ccccc1/C=N/N1CCCCCC1: 0.0
- CO[C@H]1CC(O[C@@H]2/C(C)=C/C[C@@H]3C[C@@H](C[C@]4(C=C[C@H](C)[C@@H](C5CCCCC5)O4)O3)OC(=O)[C@@H]3C=C(C)[C@@H](O)[C@H]4OC/C(=C\C=C\[C@@H]2C)[C@]43O)O[C@@H](C)C1O[C@H]1C[C@H](OC)[C@@H](O)[C@H](C)O1 (stereo partly drawn): 1.0
- Cc1noc(C)c1CSc1ccccc1C(=O)N1CCN(c2cccc(C(F)(F)F)c2)CC1: 0.0
- CC(C)(C)OC(=O)N1CCc2c(sc3ncnc(N/N=C/c4ccc(Br)cc4)c23)C1: 0.0
- CC(C)(C)c1ccc(S(=O)(=O)Oc2ccc(NC(=O)C3CCCCC3)cc2)cc1: 0.0
- OCC1OC(n2cnc3c(NCc4ccco4)ncnc32)C(O)C1O (stereo not drawn): 1.0
- O=C1NC(=O)c2c(CCCSc3nc4ccccc4c(=O)n3CCc3ccccc3)cccc21: 1.0

###

Test system: SR leukemia
Test: NCI-60 one-dose screen, 48 h (100 = growth as untreated, 0 = no growth, -100 = all killed)
Settings: 10 µM
Compounds without any hit were thinned out: in the full panel of roughly 83,000, 20% have a hit.
Values of growth greater than or equal to 30% map to rule met; values below map to rule not met.

* COc1ccc(/C=C2\CCCC3C2=Nc2ccccc2NC3c2ccc(OC)cc2)cc1 (stereo not given) | rule met
* CCN(CC)CCCC(Nc1c2ccc(Cl)cc2nc2ccc(OC)cc12)c1ccc(F)cc1 (stereo not given) | rule not met
* COc1ccc(-c2nn(-c3cccc(Cl)c3)cc2-c2c(C#N)c(=O)n3[nH]c(-c4ccc(C)cc4)nc3c2C#N)cc1 | rule not met
* O=C1/C=C/[C@@H](O)[C@@H]2C[C@@H](O)C[C@H]2/C=C/CCC[C@H](C(F)(F)F)O1 | rule not met
* CCN(CCCNc1cc2c(c(N)c1S(=O)(=O)O)C(=O)c1ccccc1C2=O)c1ccccc1 | rule met
* COc1cccc(-c2nc3sccn3c2-c2cccc(S(C)(=O)=O)c2)c1 | rule met
* CN(C)c1ccc(/C=N/NC(=O)c2ccccc2Nc2cccc(C(F)(F)F)c2)cc1 | rule met
* c1cncc(-c2csc(-c3c[nH]c4ccccc34)n2)c1 | rule met
* CC[C@H]1OC(=O)[C@H](C)[C@@H](O[C@H]2C[C@@](C)(OC)[C@@H](O)[C@H](C)O2)[C@H](C)[C@@H](O[C@@H]2O[C@H](C)C[C@H](N(C)C)[C@H]2O)[C@](C)(OC)C/C(C)=C2/O[C@@]1(C)C=C2C | rule not met
* Cc1cccc(N=Cc2ccccc2O)c1C | rule met
* O=C(/C=C/c1cccc(B(O)O)c1)c1cccc(B(O)O)c1 | rule not met
* COc1cc(C(=O)n2nc(-c3cc(OC)c(OC)c(OC)c3)nc2N)cc(OC)c1OC | rule met
* CCn1cc(C(=O)O)c(=O)c2cc(F)c(N3CCNCC3)cc21 | rule met
* O=C1c2ccccc2-c2c1c1cccnc1c(=O)n2C[C@H](O)CO | rule not met
* c1ccc(CCCCc2ccc3ccccc3n2)cc1 | rule met
* CN(C)CCCOc1cccc(NC2=C(Cl)C(=O)C(Nc3cccc(OCCCN(C)C)c3)=C(Cl)C2=O)c1 | rule not met
* CC(=O)C1N=NCC1c1ccccc1 (stereo not given) | rule met
* O=C(Nc1ccc(OCc2nnc(-c3ccc(Cl)cc3)o2)c(F)c1)Nc1ccc(Cl)c(C(F)(F)F)c1 | rule not met
* COCCn1cc(-c2nc(-c3cccnc3)cs2)c2cc(F)ccc21 | rule met

###

System: SK-MEL-28 melanoma
Assay: NCI-60 one-dose screen, 48 h (100 = growth as untreated, 0 = no growth, -100 = all killed)
Details: 10 µM
About 83,000 compounds went through this panel and 20% of them were active in at least one assay; those are over-represented in the sample as a whole.
REPORTED METRIC: growth (%)

- CCOC(=O)c1cc(C(=O)c2ccc(OC)c(OC)c2)n2ccncc12: 115
- COc1ccc(C(=O)COc2cccc(/C=C3\Cc4ccccc4C3=O)c2)cc1: 103
- NC1=NC(c2ccccc2)C2=C(N1)/C(=C/c1ccccc1)CCC2 (stereo not drawn): 102
- C[n+]1c2ccccc2nc2ccccc21: -2.36
- CN(C)CCCN1c2ccccc2CCc2ccc(Cl)cc21: 36.9
- CC(C)(C)c1ccc(S(=O)(=O)N[C@H]2CC[C@H]3[C@@H]4CCc5cc(O)ccc5[C@H]4CC[C@]23C)cc1: 79.1
- CC(=O)Nc1ccc2c(c1)C(=O)c1cccc(C(=O)O)c1-2: 97.9
- O=C(Nc1ccccc1)Nc1ncnc2c1ncn2-c1ccccc1: 94
- COc1ccc(-c2nn(-c3cccc(Cl)c3)cc2-c2cc(-c3ccccc3)[nH]c(=O)c2C#N)cc1: 71
- COc1ccc(C(c2ccc(OCCN(C)C)cc2)c2cc3ccccc3c3ccccc23)cc1 (stereo not drawn): -77.8
- Nc1ccccc1NC(=O)c1ccc(CCCC(=O)Nc2ccc(C3CC3N)cc2)cc1 (stereo not drawn): 18
- COc1cc(-c2nn(-c3cccc(NC(=O)CCN4CCN(Cc5ccccc5)CC4)c3)cc2-c2ccncc2)ccc1Cl: -85.4
- O=S(=O)(O)c1ccc(Cl)cc1: 113

###

System: U251 CNS
Experiment: NCI-60 one-dose screen, 48 h
Conditions: 10 µM
This is part of a sample that, as a whole, favours compounds with a hit. Of some 83,000 tested, about 20% had one in any assay. Calls of active or inactive are those of the source. The calls were made as follows: active = growth percent below 10; inactive = the rest.
Outcomes: 1 for active, 0 for inactive

• COc1cc(C)ccc1Oc1nc(Nc2ccc(N3CCOCC3)cc2)ncc1NC(=O)Nc1cc(C(F)(F)F)cc(C(F)(F)F)c1 = 0
• CCOc1ccccc1/C=N/N1CCCCCC1 = 0
• COc1ccc(Nc2cnc3cc(NS(=O)(=O)c4ccc(C)cc4)ccc3n2)cc1 = 0
• CCN(CC)CCCC(C)Nc1c2ccc(Cl)cc2nc2ccc(OC)cc12 (stereo unspecified) = 0
• Cc1nn(-c2ccccc2)c2nc(Cl)c(C=O)c(-c3ccccc3)c12 = 0
• Cc1ccc(NC(=O)N2CCCCC2)cc1[N+](=O)[O-] = 0
• CCCCCC(=O)O[C@]1(C(C)=O)CCC2C3CCC4=CC(=O)CC[C@]4(C)C3CC[C@@]21C (stereo partly specified) = 0
• NS(=O)(=O)Oc1ccc(NC(=O)C2CCCCCC2)cc1 = 0
• CC(C)(O)CCl = 0
• Cn1c2ccccc2c2c3[nH][nH]c(=O)c3c3c4ccccc4[nH]c3c21 = 0
• COc1cc2c(cc1OC)C(C(CCCCCC(CCC(C)C)C1NCCc3cc(OC)c(OC)cc31)CCC(C)C)NCC2 (stereo unspecified) = 1

###

Measured growth of individual entries
Test system: MDA-MB-231 breast
Assay: NCI-60 one-dose screen, 48 h (100 = growth as untreated, 0 = no growth, -100 = all killed)
Conditions: 10 µM
The panel holds about 83,000 compounds, 20% with a hit somewhere; the sample as a whole holds those more often.
REPORTED METRIC: growth (%)

- Nc1cc(-c2ccc(Cl)cc2)nn1-c1nc2ccccc2nc1Cc1ccccc1: 75.1
- COc1cc(/C=C2\CCCC3=C2NC(N)=NC3c2cc(OC)c(OC)c(OC)c2)cc(OC)c1OC (configuration not stated): 28.9
- C/C=C/CSC(C)(C)C(=O)NC: 120
- COc1cc2cc(Oc3ccc(NC(=O)c4cccc(C(F)(F)F)c4)cc3)c(C)nc2cc1OC: 33.3
- CS(=O)(=O)c1nccc(-c2c(-c3cccc(OCCc4ccccc4)c3)nc3sccn23)n1: 93.7
- O=C1/C(=C/c2cccc(F)c2)Cc2ccccc21: 112
- COc1cc2cc(Oc3ccc(NC(=O)c4ccccc4)cc3)c(C)nc2cc1OC: 66
- Cc1ccc(NCCNCC(C)(C)O)c2c(=O)c3ccc(Cl)cc3sc12: -36.9
- COc1ccccc1-n1c(-c2sc(NC(C)=O)nc2C)n[nH]c1=S: 106
- C[C@]12CCC3c4ccc(O)cc4C[C@@H](CCCCCCCCCS(=O)CCCC(F)(F)C(F)(F)F)C3C1CC[C@@H]2O (some centres not stated): 79.5
- CN1CCN(CC(=O)Nc2cccc(-n3cc(-c4ccncc4)c(-c4ccc(Cl)c(O)c4)n3)c2)CC1: 46.1
- CC(CN(C)C)Oc1ccccc1NC1=C(Cl)C(=O)C(Nc2ccccc2OC(C)CN(C)C)=C(Cl)C1=O (configuration not stated): -77.5
- CCNc1nc(C(F)(F)F)nc2c1sc(=S)n2-c1ccccc1: 85.1
- Cc1cc(Cl)ccc1Nc1nc(C(F)(F)F)ccc1C(=O)N/N=C/c1c(Cl)cccc1Cl: -17.2
- COc1cc2cc(Oc3ccc(NC(=O)Nc4cccc(C(F)(F)F)c4)cc3)c(C)nc2cc1OC: -8.32
- Nc1ccc(-c2cccs2)cc1NC(=O)c1ccc(CCCC(=O)Nc2ccc(C3CC3N)cc2)cc1 (configuration not stated): 47.1
- COc1cccc(N=Nc2cccc(OC)c2)c1: 84
- COc1ccc2nc3cc(Cl)ccc3c(Nc3cc(CN4CCCC4)c(O)c(CN4CCCC4)c3)c2n1: -21.6
- COc1cc2cc(Oc3ccc(NC(=O)Nc4ccc(Cl)c(C(F)(F)F)c4)cc3)c(C)nc2cc1OC: -50.6
- CC(=O)/C(=C/c1ccc(Br)cc1)C(=O)c1ccccc1: 77.4
- O=C1CCn2c1c(O)c1ccccc1c2=O: 115
- COc1ccc([C@H]2[C@H](C(=O)Nc3cccnc3)c3ccccc3C(=O)N2c2ccccc2)cc1: 95.9
- CN(C)CCCN1c2ccccc2CCc2ccc(Cl)cc21: 15.8
- CC(C)N(CCOc1ccc(-c2nc3sccn3c2-c2ccnc(S(C)(=O)=O)n2)cc1)C(C)C: 75.4
- Cc1ccc(C(=O)C2C(=O)C3CCC2C3)cc1 (configuration not stated): 107
- Cc1nn(-c2ccc(-c3ccc(OC(F)(F)F)cc3)cc2)c2nc(Cc3ccccc3)nc(N)c12: 48.3
- COC(=O)C1(O)NC(=C(C#N)C#N)C(C#N)=C1C(=O)c1ccc(OC)c(OC)c1 (configuration not stated): 119
- O=C1c2ccccc2-c2c1c1cccnc1c(=O)n2C[C@H](O)CO: 75.7
- Nc1ccn(Cc2nnc(CCC(=O)c3nc4ccccc4[nH]3)o2)c(=O)n1: 87.3
- CC(C)N(CCOc1cccc(-c2nc3sccn3c2-c2ccnc(S(C)(=O)=O)n2)c1)C(C)C: 57.8
- C#C[C@]1(O)CCC2C3CCc4cc(OC5CCCC5)ccc4C3CC[C@@]21C (some centres not stated): 50.6
- O=[N+]([O-])c1cc(Cl)cc(Cl)c1O: 110
- CCCCC1(O)CCCCC1: 103
- COc1cccc(-c2nc3sccn3c2-c2cccc(S(C)(=O)=O)c2)c1: 93.4
- Cc1ccc(NCCN(C)CC(C)O)c2c(=O)c3ccccc3sc12 (configuration not stated): 36.9
- CCOC(=O)/C(=C(\C)N)C1CC(=O)NC1=O (configuration not stated): 112
- Cc1ccc(S(=O)(=O)N/N=C2\CCCc3ccccc32)cc1: 108
- O=C(CCCCC(=O)Oc1c(Cl)cc(Cl)cc1[N+](=O)[O-])Oc1c(Cl)cc(Cl)cc1[N+](=O)[O-]: 106
- COc1cc2nc(SCC(=O)Nc3cc(OC)c(OC)c(OC)c3)n(Cc3ccccc3)c(=O)c2cc1OC: 41
- OCC1OC(n2cnc3c(NCc4ccco4)ncnc32)C(O)C1O (configuration not stated): -5.65
- CNS(=O)(=O)Oc1ccc(-c2ccc3occc3c2)cc1: 100
- COc1ccc(/C(C#N)=C/c2cccc(OC)c2OC)cc1: 83.3
